Assay: estimated solubility by adding test solvent in aliquots to weighed solid, visual inspection
Type: physicochemical
Conditions: organic solvent or mixture, thermodynamic from solid; cyclohexane; at 60° C.; read-out: Solubility
Quantity Name: solubility

Ask | Given the entry CN1CCN([C@@H]2CCCN(c3cnc(C(N)=O)c(Nc4ccc(C5CCN(CC6CCN(c7ccc(C(=O)N[C@H]8CCC(=O)NC8=O)nc7)CC6)CC5)cc4)n3)C2)C1=O [free base compound of Formula (I)] , report its measured solubility.
Reply | < 2000 µg/mL

###

Test: initial physical stability evaluation at various relative humidity, room temperature, ~1 week (XRPD, Karl Fischer)
Format: physicochemical
Details: RT, 20% RH
Quantity Name: KF-Oven water

Ask | Given the entry CN1CCN([C@@H]2CCCN(c3cnc(C(N)=O)c(Nc4ccc(C5CCN(CC6CCN(c7ccc(C(=O)N[C@H]8CCC(=O)NC8=O)nc7)CC6)CC5)cc4)n3)C2)C1=O.O=C(O)/C=C/C(=O)O [Fumarate Salt Form A] , report its measured KF-Oven water.
Reply | 0.7 mol/mol

###

Test: estimated solubility by adding test solvent in aliquots to weighed solid, visual inspection
Type: physicochemical
Details: aqueous with cosolvent or surfactant or cyclodextrin, thermodynamic from solid; acetonitrile/H2O (45/55), aw 0.9; at 60° C.; read-out: Solubility
Experimental: Solubilities of the compound of Formula (I), free base, in a few solvents were estimated. The experiments were carried out by adding the test solvent in aliquots to weighed portions of solid. […] Solubility numbers were calculated by dividing the weight of the sample by total amount of solvent used to dissolve the sample. The actual solubilities may be greater than the numbers calculated because of the use of solvent aliquots that were too large or because of slow dissolution rates. […]
Quantity Name: solubility

Ask | Given the entry CN1CCN([C@@H]2CCCN(c3cnc(C(N)=O)c(Nc4ccc(C5CCN(CC6CCN(c7ccc(C(=O)N[C@H]8CCC(=O)NC8=O)nc7)CC6)CC5)cc4)n3)C2)C1=O [free base compound of Formula (I)] , report its measured solubility.
Reply | < 2000 µg/mL

###

Test: initial physical stability evaluation at various relative humidity, room temperature, ~1 week (XRPD, Karl Fischer)
Format: physicochemical
Conditions: RT, ~0% RH
Quantity Name: KF-Oven water (mol/mol)
// return numeric value only (unit: mol/mol, not printed)

Ask | Given the entry CN1CCN([C@@H]2CCCN(c3cnc(C(N)=O)c(Nc4ccc(C5CCN(CC6CCN(c7ccc(C(=O)N[C@H]8CCC(=O)NC8=O)nc7)CC6)CC5)cc4)n3)C2)C1=O.O=C(O)/C=C/C(=O)O [Fumarate Salt Form A] , report its measured KF-Oven water.
Reply | 0.6

###

Assay: estimated solubility by adding test solvent in aliquots to weighed solid, visual inspection
Format: physicochemical
Settings: organic solvent or mixture, thermodynamic from solid; acetone; at 60° C.; read-out: Solubility
Quantity Name: solubility

Ask | Given the entry CN1CCN([C@@H]2CCCN(c3cnc(C(N)=O)c(Nc4ccc(C5CCN(CC6CCN(c7ccc(C(=O)N[C@H]8CCC(=O)NC8=O)nc7)CC6)CC5)cc4)n3)C2)C1=O.O=C(O)/C=C/C(=O)O [Fumarate Salt Form A] , report its measured solubility.
Reply | < 1000 µg/mL

###

Assay: estimated solubility by adding test solvent in aliquots to weighed solid, visual inspection
Format: physicochemical
Conditions: organic solvent or mixture, thermodynamic from solid; diethyl ether (Et2O); solubility without temperature; read-out: Solubility
Quantity Name: solubility

Ask | Given the entry CN1CCN([C@@H]2CCCN(c3cnc(C(N)=O)c(Nc4ccc(C5CCN(CC6CCN(c7ccc(C(=O)N[C@H]8CCC(=O)NC8=O)nc7)CC6)CC5)cc4)n3)C2)C1=O [free base compound of Formula (I)] , report its measured solubility.
Reply | < 1 mg/mL

###

Experiment: estimated solubility by adding test solvent in aliquots to weighed solid, visual inspection
Format: physicochemical
Conditions: organic solvent or mixture, thermodynamic from solid; 1,4-dioxane; solubility without temperature; read-out: Solubility
Quantity Name: solubility (µg/mL)
// return numeric value only (unit: µg/mL, not printed)

Ask | Given the entry CN1CCN([C@@H]2CCCN(c3cnc(C(N)=O)c(Nc4ccc(C5CCN(CC6CCN(c7ccc(C(=O)N[C@H]8CCC(=O)NC8=O)nc7)CC6)CC5)cc4)n3)C2)C1=O [free base compound of Formula (I)] , report its measured solubility.
Reply | 6000

###

Experiment: water solubility, visual solubility estimation using pipet method
Assay type: physicochemical
Settings: thermodynamic from solid
Quantity Name: solubility

1) CN1CCN([C@@H]2CCCN(c3cnc(C(N)=O)c(Nc4ccc(C5CCN(CC6CCN(c7ccc(C(=O)N[C@H]8CCC(=O)NC8=O)nc7)CC6)CC5)cc4)n3)C2)C1=O.O=C(O)/C=C\C(=O)O [Maleate Salt Form A] ... < 300 µg/mL

Ask | Given the entry CN1CCN([C@@H]2CCCN(c3cnc(C(N)=O)c(Nc4ccc(C5CCN(CC6CCN(c7ccc(C(=O)N[C@H]8CCC(=O)NC8=O)nc7)CC6)CC5)cc4)n3)C2)C1=O.O=C(O)/C=C/C(=O)O [Fumarate Salt Form A] , report its measured solubility.
Reply | < 300 µg/mL

###

Assay: estimated solubility by adding test solvent in aliquots to weighed solid, visual inspection
Format: physicochemical
Details: organic solvent or mixture, thermodynamic from solid; dimethylformamide (DMF); solubility without temperature; read-out: Solubility
Quantity Name: solubility (mg/mL)
// return numeric value only (unit: mg/mL, not printed)

Ask | Given the entry CN1CCN([C@@H]2CCCN(c3cnc(C(N)=O)c(Nc4ccc(C5CCN(CC6CCN(c7ccc(C(=O)N[C@H]8CCC(=O)NC8=O)nc7)CC6)CC5)cc4)n3)C2)C1=O [free base compound of Formula (I)] , report its measured solubility.
Reply | 21

###

Assay: estimated solubility by adding test solvent in aliquots to weighed solid, visual inspection
Assay type: physicochemical
Conditions: organic solvent or mixture, thermodynamic from solid; anisole; at 60° C.; read-out: Solubility
Quantity Name: solubility

Ask | Given the entry CN1CCN([C@@H]2CCCN(c3cnc(C(N)=O)c(Nc4ccc(C5CCN(CC6CCN(c7ccc(C(=O)N[C@H]8CCC(=O)NC8=O)nc7)CC6)CC5)cc4)n3)C2)C1=O [free base compound of Formula (I)] , report its measured solubility.
Reply | < 1 mg/mL

###

Assay: stressing at 40° C./75% relative humidity (stability study, XRPD)
Type: physicochemical
Conditions: 7 days
Quantity Name: physical stability to stressing at 40° C./75% relative humidity (RH)

1) CN1CCN([C@@H]2CCCN(c3cnc(C(N)=O)c(Nc4ccc(C5CCN(CC6CCN(c7ccc(C(=O)N[C@H]8CCC(=O)NC8=O)nc7)CC6)CC5)cc4)n3)C2)C1=O [Free Base Form H] ... physically stable
2) CN1CCN([C@@H]2CCCN(c3cnc(C(N)=O)c(Nc4ccc(C5CCN(CC6CCN(c7ccc(C(=O)N[C@H]8CCC(=O)NC8=O)nc7)CC6)CC5)cc4)n3)C2)C1=O [Free Base Form E] ... physically stable
3) CN1CCN([C@@H]2CCCN(c3cnc(C(N)=O)c(Nc4ccc(C5CCN(CC6CCN(c7ccc(C(=O)N[C@H]8CCC(=O)NC8=O)nc7)CC6)CC5)cc4)n3)C2)C1=O [Free Base Form G] ... not physically stable
4) CN1CCN([C@@H]2CCCN(c3cnc(C(N)=O)c(Nc4ccc(C5CCN(CC6CCN(c7ccc(C(=O)N[C@H]8CCC(=O)NC8=O)nc7)CC6)CC5)cc4)n3)C2)C1=O [Free Base Form F] ... not physically stable

Please examine the following record next.
Ask | Given the entry CN1CCN([C@@H]2CCCN(c3cnc(C(N)=O)c(Nc4ccc(C5CCN(CC6CCN(c7ccc(C(=O)N[C@H]8CCC(=O)NC8=O)nc7)CC6)CC5)cc4)n3)C2)C1=O [Free Base Form J] , report its measured physical stability to stressing at 40° C./75% relative humidity (RH).
Reply | physically stable

###

Experiment: estimated solubility by adding test solvent in aliquots to weighed solid, visual inspection
Assay type: physicochemical
Settings: organic solvent or mixture, thermodynamic from solid; acetonitrile (ACN); solubility without temperature; read-out: Solubility
Description: Solubilities of the compound of Formula (I), free base, in a few solvents were estimated. The experiments were carried out by adding the test solvent in aliquots to weighed portions of solid. […] Solubility numbers were calculated by dividing the weight of the sample by total amount of solvent used to dissolve the sample. The actual solubilities may be greater than the numbers calculated because of the use of solvent aliquots that were too large or because of slow dissolution rates. […]
Quantity Name: solubility

Ask | Given the entry CN1CCN([C@@H]2CCCN(c3cnc(C(N)=O)c(Nc4ccc(C5CCN(CC6CCN(c7ccc(C(=O)N[C@H]8CCC(=O)NC8=O)nc7)CC6)CC5)cc4)n3)C2)C1=O [free base compound of Formula (I)] , report its measured solubility.
Reply | < 1000 µg/mL

###

Experiment: estimated solubility by adding test solvent in aliquots to weighed solid, visual inspection
Type: physicochemical
Conditions: organic solvent or mixture, thermodynamic from solid; ethyl formate; at 60° C.; read-out: Solubility
Quantity Name: solubility

Ask | Given the entry CN1CCN([C@@H]2CCCN(c3cnc(C(N)=O)c(Nc4ccc(C5CCN(CC6CCN(c7ccc(C(=O)N[C@H]8CCC(=O)NC8=O)nc7)CC6)CC5)cc4)n3)C2)C1=O.O=C(O)/C=C/C(=O)O [Fumarate Salt Form A] , report its measured solubility.
Reply | < 1000 µg/mL
